testTarget: recombinant human BAFF (BioLegend) (human, UniProt Q9Y275 134-285)
runDescription: cell-based or functional assay
Recorded BAFF IC50 (pM), one value per entry.
# value in pM; strip the unit string

Consider the reported BAFF IC50 (pM) for these binders:
belimumab, anti-BAFF monoclonal antibody (antibody, V domains shown) VH: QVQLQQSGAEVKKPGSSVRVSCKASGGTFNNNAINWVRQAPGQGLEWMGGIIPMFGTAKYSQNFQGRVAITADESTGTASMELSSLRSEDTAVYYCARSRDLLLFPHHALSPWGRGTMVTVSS VL: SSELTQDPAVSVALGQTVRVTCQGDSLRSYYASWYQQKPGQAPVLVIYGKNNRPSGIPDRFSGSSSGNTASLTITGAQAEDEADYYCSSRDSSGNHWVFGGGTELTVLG : 2200
atacicept (WT TACI-Fc sequences corresponding to atacicept, containing WT TACI 30-110; SEQ ID NO:132) (Fc fusion) AMRSCPEEQYWDPLLGTCMSCKTICNHQSQRTCAAFCRSLSCRKEQGKFYDHLLRDCISCASICGQHPKQCAYFCENKLRSEPKSSDKTHTCPPCPAPEAEGAPSVFLFPPKPKDTLMISRTPEVTCVVVDVSHEDPEVKFNWYVDGVEVHNAKTKPREEQYNSTYRVVSVLTVLHQDWLNGKEYKCKVSNKALPSSIEKTISKAKGQPREPQVYTLPPSRDELTKNQVSLTCLVKGFYPSDIAVEWESNGQPENNYKTTPPVLDSDGSFFLYSKLTVDKSRWQQGNVFSCSVMHEALHNHYTQKSLSLSPGK : 7740
13 TACI CRD2-Fc, WT TACI (68-110)-Fc (TACI 68-110, SEQ ID NO: 13, TACI-Fc SEQ ID NO: 171) (Fc fusion) SLSCRKEQGKFYDHLLRDCISCASICGQHPKQCAYFCENKLRSGSGGGGSEPKSSDKTHTCPPCPAPEAEGAPSVFLFPPKPKDTLMISRTPEVTCVVVDVSHEDPEVKFNWYVDGVEVHNAKTKPREEQYNSTYRVVSVLTVLHQDWLNGKEYKCKVSNKALPAPIEKTISKAKGQPREPQVYTLPPSRDELTKNQVSLTCLVKGFYPSDIAVEWESNGQPENNYKTTPPVLDSDGSFFLYSKLTVDKSRWQQGNVFSCSVMHEALHNHYTQKSLSLSPG : 1850

Below: the item to evaluate.
response.value for 26 TACI CRD2-Fc (TACI vTD SEQ ID NO:26, K77E/F78Y/Y102D; Fc fusion SEQ ID NO: 167) (Fc fusion) SLSCRKEQGEYYDHLLRDCISCASICGQHPKQCADFCENKLRSGSGGGGSEPKSSDKTHTCPPCPAPEAEGAPSVFLFPPKPKDTLMISRTPEVTCVVVDVSHEDPEVKFNWYVDGVEVHNAKTKPREEQYNSTYRVVSVLTVLHQDWLNGKEYKCKVSNKALPAPIEKTISKAKGQPREPQVYTLPPSRDELTKNQVSLTCLVKGFYPSDIAVEWESNGQPENNYKTTPPVLDSDGSFFLYSKLTVDKSRWQQGNVFSCSVMHEALHNHYTQKSLSLSPG (field: BAFF IC50 (pM)) = 1550

Ref: patent US20240279310A1
